B1: TPR t1 (parent)
chain: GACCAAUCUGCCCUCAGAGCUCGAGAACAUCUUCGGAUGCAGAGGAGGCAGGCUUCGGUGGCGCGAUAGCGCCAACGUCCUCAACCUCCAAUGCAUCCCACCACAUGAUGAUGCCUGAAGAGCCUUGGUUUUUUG

Variants of: B1
Test: polymerase ribozyme fitness, log enrichment relative to wild type (log ratio); higher = more active; in vitro selection for triplet polymerase activity
Quantity name: polymerase ribozyme fitness (log ratio)
Just the number.

GACCAAUCUGCCCUCAGCGCUCGAGAACAUCUUCGGAUGGAGAGGAGGCAGGCUUCGGUGGCGCGAUAGCGCCAACGUCCUCAACCUCCAAUGCAUCCCACCACAUGAUGAUGCCUGAAGAGCCUUGGUUUUUUG | -4.09
GACCAAUCUGCCCUCAGAGCUCGAGAACAUCUUCGGAUGCAGAGGAGGCAGGCUUCGGUGGCGCGAUAGCGCCAACGUCCUCAACCUCCAAUGGAUCCCACCACAUGAUGAUGCCCGCAGAGCCUUGGUUUUUUG | -3.89
GACCAAUCUGCCCUCAGAGCUGGAGAACAUCUUCGGAUGCAGAGGAGGCAGGCUUCGGUGGCGCGAUAGCGCCAACGUCCUCAACCUCCAAUGCAUCCCACCACAUGAUGAUGCAUGAAGAGCCUUGGUUUUUUG | -4.07

Q: Please report the recorded polymerase ribozyme fitness (log ratio) for `GACCAAUAUGCCCUCAGAGCUCGAGAACAUCUUCAGAUGCAGAGGAGGCAGGCUUCGGUGGCGCGAUAGCGCCAACGUCCUCAACCUCUAAUGCUUCCCACCACAAGAUGAUGCCUGAAGAGCCUUGGUUUUUUG` .
Result: -4.65

Q: Please report the recorded polymerase ribozyme fitness (log ratio) for `GACCAAUCUGCCCUCAGAGCUCGAGAACAUCUUCGGAUGCAGAGGAGGCAGGCUUCGGUGGCGCGAUAGCGCCAACGUCCUCAACCUCCAAUGCAUCCCACCACAUGAUGAUGCCUGGAGAGCGUUGGUUUUUUG` .
Result: -0.0684

Q: Please report the recorded polymerase ribozyme fitness (log ratio) for `GACCAAUCUGCCCUCAGAGCUCGAGAACAUCUUCGGAUUCAGAGGAGGCAGGCUUCGGUGUCGCGAUAGCGCUAACGUCCUCAACCUCCAAUGCAUCCCACCACAAGAUGAUGCCUGAAGAGCCUUGGUUUUUUG` .
Result: -1.81

Q: Please report the recorded polymerase ribozyme fitness (log ratio) for `GACCAAUCUGCCCUCAGAGCUCGAGAACAUCUUCGGAUGCAGAGGAGGCAGGCUUCGGUGGCGCGAUAGCGCCAACGUACUCAACCUUCAAUGCAUCCCACCACAUGAUGAUGCCUGAAGAGCCUUGGUUUUUUG` .
Result: -1.33

Q: Please report the recorded polymerase ribozyme fitness (log ratio) for `GACCAAUCUGCCCUCAGAGCUCGAGAACAUCUUCGGAUGCAGAGGAGGCAGGCUUCGGUGACGCGAUAGCGCCAACGUCCUCAACCUGCAAUGCAUCCCACCACAUGAUGAUGCCUGAAGAGCCUUGGAUUUUUG` .
Result: -1.82

Q: Please report the recorded polymerase ribozyme fitness (log ratio) for `GACCAAUCUGCCCUCAAAGCACGAGAACAUCUUCGGAUCCAGAGGAGGCAGGCUUUGGUGGCGCGAUAGCGCCAACGUCCUCAACCUCCAAUGCAUCCCACCACAUGAUGAUGCCUGAAGAGCCUUGGUUUUUUG` .
Result: -4.02

Q: Please report the recorded polymerase ribozyme fitness (log ratio) for `GACCAAUCUGCCCUCAGAGCUCGAGAACAUCUUCGGAUGCAGAGGAGUCAGGCUUCUGUGGCGCGAUAGCGCCAGCGUCCUCCACCUCCAAUGCAUCCCACCACAUGAUGAUGCCUAAAGAGCCUUGGUUUUUUG` .
Result: -4.82

Q: Please report the recorded polymerase ribozyme fitness (log ratio) for `GACCAAUCUGCCCUCAGAGCUCGAGAACGUCUUCGGAUGCAGAGGAGGCAGGCUUGGGUGGCGCGAUAGCGCCAACGUCCUCAACCUCCAAUGCAUCCCACCACAUGAUGAUGCCUGAAGAGCCUUGGUUUUUUG` .
Result: -1.53

Q: Please report the recorded polymerase ribozyme fitness (log ratio) for `GACCAAUCUGCCCUCAGAGCUCGAGAACAUCUUCGGAUGCAGAGGAGGCAGGCUUCGGUGGCGCGAUACCGCCAACGUCCUCAACCUCCAAUGCAUCCCACCACAUGAUGAUGCCUGAAGAGCCUUGGUUUUAUG` .
Result: -1.62

Q: Please report the recorded polymerase ribozyme fitness (log ratio) for `GACCAAUCUGCCCUCAGAGCUCGAGAACAUCCUCGGAUGCAGAGGAGGCAGGCUUUGGUGGCGCGAUAGCGUCAACGUCCUCAACCUCCAAUGCAUCCCACCACAUGAUGUUGCCUGAAGAGCCUUGGUUUUUUG` .
Result: -3.66

Q: Please report the recorded polymerase ribozyme fitness (log ratio) for `GACCAAACUGCCCUCAGAGCUCGAGAACAUCUUCGGAUGCAGAGGAGGCAGGCUUAGGUGGCGCCAUAGCACCAACGUCCUCAACCUCCAAUGCAUCCCACCACAUGAUGAUGCCUGAAGAGCCUUGGUUUUUUG` .
Result: -7.51

Q: Please report the recorded polymerase ribozyme fitness (log ratio) for `GACCAAUCUGCCCUAAGAGCUCGAGAACAUCUUCGGAUGCAGAGGAGGCAGGCUUCGGUGGCGCGAUAGUGCCAACGUCCUCAACCUCCAAUGCAUCCCACCACAUGAUGAUGUCUGAAGAGCCUUGGUUUUUUG` .
Result: -5.04

Q: Please report the recorded polymerase ribozyme fitness (log ratio) for `GACCAAUCUGCUCUCAGAGCUCGAGAACAUCUUCGGAUGCAGAGGAGGCAGGCUUCGGUGGCGCGAUAGCGCCAACGUCCUCAACCUCCAAUGCAUCCCACCACAUGACGAUGCCUGAAGAGCCUUGGUUUUUUG` .
Result: -2.5

Q: Please report the recorded polymerase ribozyme fitness (log ratio) for `GACCAAUCUGCCCUCAGAGCUCGAGAACAUCUUCGGAUGCAGAGGAGGCAGGCUUAGGUGGCGCGAUAGCGCCAACGUCCUCAACCUCCAAUGCAUCCCACCACAUGAUGAUGCCUGAAGUGCCUUGGUUUUUUG` .
Result: 1.42

Q: Please report the recorded polymerase ribozyme fitness (log ratio) for `GACCAAUCUGCCCUCAGAGCUCGAGAACAUCUUCGGAUGCAGAGAAGGCAGGCUUCGGUGGCGCGAUAGCGCCAACGUCCUAAACCUCCAAUGCAUCCCACCACAUGAUGAUGCCUGAAGAGCCUUGGUUUUUUG` .
Result: -1.1

Q: Please report the recorded polymerase ribozyme fitness (log ratio) for `GACCAAUCUGCCCUCGGAGCUCGAGAACAUCUUCGGAUGCAGAGGCGGCAGGCUUCGGUGGCGCGAUAGCGCCAACGUCCUCAACCUCCAAUGCAUCCCACCACAUGAUGAUGCCUGAACAGCCUUGGUUUUUUG` .
Result: -0.418

Q: Please report the recorded polymerase ribozyme fitness (log ratio) for `GACCAAUCUGCCCUCAGAGCUCGAGAACAUCUUCGGAUGCAGAGGAGGCAGGCUUCGGUGGCGGGAUAGCGCCAACGUCCUCAACCUCCAAUGCAUCCCACCACAUGAUGAUGCCUGAAGCGCCUUGGUUUUUUG` .
Result: -5.13

Q: Please report the recorded polymerase ribozyme fitness (log ratio) for `GACCAAUCUGCCCUCAGAGCUCGAGAACAUCUUCGGAUGCAGAGGAGGCAGGAUUCGGUGGCGCGAUAGCGCCAACGUCCUCAACCUCCAAUACAUCCCACCACAUGAUGAUGCCUGAAGAGCCUUGGUUUUUUG` .
Result: -0.768

Q: Please report the recorded polymerase ribozyme fitness (log ratio) for `GACCAAUCUGCCCUCAGAGCUCGAGAACAUCUUCGGUUGCAGAGGAGGCAGGCUUCGGUGGCGCGAUAGCGCCAACGCCCUCAACCCCCAAUGCAUCCCACCACAUGAUGAUGCCUGAAGAGCCUUGGUUUUUUG` .
Result: 0.269

Q: Please report the recorded polymerase ribozyme fitness (log ratio) for `GACCAAUAUGCCCUCAGAGCUCGAGAACAUCUUCGGAUGCAGAGGAUGCAGGCUUCGGUGGCGCGAUAGCGCCAACGACCUCCACCUCCAAUGCAUCGCACCACAUGAUGAAGCCUGAAGAGCCUUGGUUUUUUG` .
Result: -7.02
